# test name: qHTS assay for small molecule antagonists of retinoid X receptor alpha signaling (AID 588546);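 further: cells stimulated with 9-cis-retinoic acid as agonist; on the % scale 0 is the no-effect control and ±100 the full control effect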
# experimental setup: HEK293T RXRa-UAS-bla, beta-lactamase ratio, antagonist mode; measured here: W530 green channel, cytotoxicity proxy
Inconclusive results are not listed.
# max response per record follows
Numbers only; they are read as %.

Some compounds with recorded max response:
## Task # query: max response of entry `O=[N+]([O-])c1ccc(Oc2ccc(C(F)(F)F)cc2[N+](=O)[O-])cc1`
## Result -9.24

## Task Do the same for `CCOP(=S)(OCC)SCn1nnc2ccccc2c1=O` please
## Result 30.8

## Task Do the same for CCCCCCCCCCCCCCC(Br)C(=O)O (stereo unspecified) please
## Result 6.53

## Task Do the same for `Clc1ccccc1-c1nnc(-c2ccccc2Cl)nn1` please
## Result -19.7

## Task Do the same for `COc1cc(OC)nc(NC(=O)NS(=O)(=O)c2cc(NC=O)ccc2C(=O)N(C)C)n1` please
## Result -2.91

## Task Do the same for O=C(O)C1C(C(=O)O)C2(Cl)C(Cl)=C(Cl)C1(Cl)C2(Cl)Cl (stereo unspecified) please
## Result -3.5

Next:
## Task # query: max response of entry `Nc1ccc([N+](=O)[O-])cc1Cl`
## Result -11.1

## Task Do the same for `FC(F)(F)c1ccc(Cl)cc1` please
## Result -9.15

## Task Do the same for CCCCC(CC)COC(=O)Cl (stereo unspecified) please
## Result -5.58

## Task Do the same for `COc1cnc(OC)n2nc(NS(=O)(=O)c3c(OCC(F)F)cccc3C(F)(F)F)nc12` please
## Result 8.71

## Task Do the same for `CCCOc1nn(C(=O)NS(=O)(=O)c2ccccc2C(=O)OC)c(=O)n1C` please
## Result -18

## Task Do the same for `CNC(=O)O/N=C/C(C)(C)S(C)(=O)=O` please
## Result -10.7

## Task Do the same for `C=CC(=O)OCC(CC)(COC(=O)C=C)COC(=O)C=C` please
## Result 23.9

## Task Do the same for `CCOc1ccc(C(C)(C)COCc2cccc(Oc3ccccc3)c2)cc1` please
## Result -7.02

## Task Do the same for `CCOP(=O)(OCC)SCSC(C)(C)C` please
## Result -15.4

## Task Do the same for `O=[As](O)(O)O` please
## Result -3.47
